test system: SF-539 CNS; assay: NCI-60 one-dose screen, 48 h; details: 10 µM unless noted
About 83,000 compounds went through this panel and 20% of them were active in at least one assay; those are over-represented in the sample as a whole. Activity calls are given as the source filed them. The calls were made as follows: active = growth percent below 10; inactive = the rest.
Labels: active, inactive

compound=CCOc1ccc(/C=C/C(=O)c2cccc(OCCCOc3cccc(C(=O)/C=C/c4ccc(OCC)cc4)c3)c2)cc1 cat=inactive
compound=O=C1/C(=C/c2ccccn2)SC(=S)N1N1CCOCC1 cat=inactive
compound="O=S(Nc1ccccc1)c1ccc(Cl)cc1 (stereo not drawn)" cat=inactive
compound="O=C1OCC2=C1C(c1ccccc1)c1cc3c(cc1N2CCO)OCCO3 (stereo not drawn)" cat=active
compound=COc1cc(/C=C2\C(=O)N(CCCOc3cc(O)c4c(=O)cc(-c5ccccc5)oc4c3)c3ccccc32)cc(OC)c1O cat=inactive
compound=O=C1c2cccnc2C(=O)c2c1c(C(=O)OCCc1ccccn1)c1ccccn21 cat=active
compound=COc1cc2ncnc(Nc3ccc(S(=O)(=O)Nc4nccs4)cc3)c2cc1OCCCN1CCCC1 cat=inactive
compound=CSc1nc(-c2ccco2)c(C#N)c(=O)n1C cat=inactive
compound=O=C(/C=C/c1ccccc1)N(C1CCCCC1)C1CCCCC1 cat=inactive
compound=Clc1ccc(-c2cc(-c3ccccc3)nc(N3CCN(CCCNc4ccnc5cc(Cl)ccc45)CC3)n2)cc1 cat=active
compound=Cc1ccc(O)c(NC(=O)c2cccc(Nc3ccnc(C(F)(F)F)c3)c2)c1 cat=inactive
compound="Cc1ccc(NC(=O)c2sc3nc(C)c(C(O)c4ccccc4)cc3c2N)cc1 (stereo not drawn)" cat=active
compound=C=C(C)[C@@H]1CC[C@]2(C(=O)N3CCN(C)CC3)CC[C@]3(C)[C@H](CC[C@@H]4[C@@](C)(CCC(=O)O)[C@H](C(=C)C)CC[C@]43C)[C@@H]12 cat=inactive
compound=c1ccc(Cn2cc3c(c2-c2ccccc2)CCc2cnoc2-3)cc1 cat=inactive
compound=COc1ccc(/C=N/NC(=O)Cn2c(-c3ccc(S(C)(=O)=O)cc3)nc3ccccc32)cc1 cat=inactive
compound=CCCc1cc(=O)oc2c(C(=O)CC(C)C)c(O)c(CC=C(C)C)c(O)c12 cat=inactive
compound="O=C1CCCC1[n+]1ccccc1 (stereo not drawn)" cat=inactive
compound=O=C(Oc1ccc2c(c1)sc1nc(-c3ccccc3)[nH]c(=O)c12)C(F)(F)F cat=inactive

* * *

tested on: SN12C renal; experiment: NCI-60 one-dose screen, 48 h (100 = growth as untreated, 0 = no growth, -100 = all killed); conditions: 10 µM unless noted
The panel holds about 83,000 compounds, 20% with a hit somewhere; the sample as a whole holds those more often. Activity calls are given as the source filed them. The calls were made as follows: active = growth percent below 10; inactive = the rest.
assay-endpoint: growth

compound=CCOC(=O)c1ccc[nH]1 experimental_target="SN12C renal" result="105% (inactive)"
compound=COc1ccc(CNc2ccc3nc(NC(=O)CN4CCCCCC4)sc3c2)cc1 experimental_target="SN12C renal" result="87.3% (inactive)"
compound=COc1cc2ncnc(Nc3ccc(F)c(Cl)c3)c2cc1OCC(=O)N1CCOCC1 experimental_target="SN12C renal" result="80.3% (inactive)"
compound="N#Cc1ccc(O)c(C2=NCC(c3ccc(-c4ccccc4)cc3)O2)c1 (stereo not given)" experimental_target="SN12C renal" result="29.8% (inactive)"
compound=Cc1nc2sc(C(=O)Nc3cccc(Cl)c3C)c(N)c2cc1C(=O)/C=C/c1ccccc1 experimental_target="SN12C renal" result="-55.6% (active)"
compound=COc1ccc2c(c1)c(-c1nc(-c3ccc4ccccc4c3)cs1)cn2C experimental_target="SN12C renal" result="93.6% (inactive)"
compound="C=CC(CC(c1ccccc1)(c1ccccc1)c1ccccc1)N(CC)CC (stereo not given)" experimental_target="SN12C renal" result="71.4% (inactive)"
compound=CS(=O)(=O)Nc1cc(-c2ccc3ncnc(Nc4ccc(F)c(Cl)c4)c3c2)ccc1Cl experimental_target="SN12C renal" result="52.7% (inactive)"
compound="C#CCOc1cccc(Nc2ncnc3c2ncn3C2CCN(C(=O)CCl)C2)c1 (stereo not given)" experimental_target="SN12C renal" result="-71.3% (active)"
compound="COC12C=C/C(=C(/C(=O)OCc3csc(SC)n3)C(=O)CCCCCCCCC3(OC)C=C/C(=C(/C(=O)OCc4cnc(SC)s4)C(=O)CCCCCCCC1)O3)O2 (stereo not given)" experimental_target="SN12C renal" result="28.9% (inactive)"
compound=C/C(Cc1ccc(Cl)cc1)=C(\c1ccc(OCCN2CCCCCC2)cc1)c1ccc(OC(=O)c2ccccc2)cc1 experimental_target="SN12C renal" result="11.2% (inactive)"
compound=COc1cc(-c2cc(-c3ccc(Nc4nc(Nc5ccc(Cl)cc5)nc(Nc5ccc(Cl)cc5)n4)cc3)no2)cc(OC)c1OC experimental_target="SN12C renal" result="106% (inactive)"
compound="CC(=O)N1N=C(c2ccc(Nc3nc(Nc4ccc(F)cc4)nc(Nc4ccc(F)cc4)n3)cc2)CC1c1ccc(N(C)C)cc1 (stereo not given)" experimental_target="SN12C renal" result="100% (inactive)"
compound=Nc1ncccc1O experimental_target="SN12C renal" result="96.7% (inactive)"
compound=COc1cc(C=C2C(=O)NC(=S)NC2=O)cc(CN2CCCC2)c1O experimental_target="SN12C renal" result="104% (inactive)"
compound=N[C@@H]1CCC[C@H]1NCCCCN1C(=O)c2cccc3cc([N+](=O)[O-])cc(c23)C1=O experimental_target="SN12C renal" result="27.4% (inactive)"
compound=Cc1c2ncccc2nc2[nH]c3ccc(OCCN(C)C)cc3c12 experimental_target="SN12C renal" result="13.9% (inactive)"
compound=Cc1cc(NCCCNc2ccnc3cc(Cl)ccc23)nc(Nc2ccc(C(=O)N3CCCCC3)cc2)n1 experimental_target="SN12C renal" result="36.6% (inactive)"
compound=CC1=C2[C@@H](CC1)[C@]1(C)O[C@@](C3CCNCC3)(C[C@H]1OC(=O)CO)[C@H]2OC(=O)/C=C/c1ccccc1 experimental_target="SN12C renal" result="53.1% (inactive)"
compound=N#Cc1c(-c2ccccc2)nc2c(c(-c3ccc(Cl)cc3)nn2-c2ccccc2)c1-c1ccc([N+](=O)[O-])cc1 experimental_target="SN12C renal" result="105% (inactive)"
compound="CCCC(O)Cn1ncc(C(=O)OCC)c1NC(=O)NCc1cccc(C(F)(F)F)c1 (stereo not given)" experimental_target="SN12C renal" result="93.7% (inactive)"
compound=Cc1ncc(C(=O)Nc2ccc(CN3CCN(C)CC3)c(C(F)(F)F)c2)cc1C#Cc1cnc(N)c2ccc(C#N)cc12 experimental_target="SN12C renal" result="10.4% (inactive)"
compound=O=C(/C=C/c1ccco1)Nc1ncc(Cc2cc(Cl)ccc2Cl)s1 experimental_target="SN12C renal" result="29.6% (inactive)"
compound=O=C(O)c1cn(C2CC2)c2cc(N3CCN(C(=O)N4CCOCC4)CC3)c(F)cc2c1=O experimental_target="SN12C renal" result="101% (inactive)"
compound=COC(=O)c1c2c(c(C)[n+]([O-])c1C)C(=O)C(NCc1ccccc1)=CC2=O experimental_target="SN12C renal" result="2.86% (active)"

* * *

Form field: growth (one value per entry).
system: SK-MEL-2 melanoma; assay: NCI-60 one-dose screen, 48 h (100 = growth as untreated, 0 = no growth, -100 = all killed); conditions: 10 µM unless noted
The panel holds about 83,000 compounds, 20% with a hit somewhere; the sample as a whole holds those more often.
assay-endpoint: growth (%)

molecule="O=C(/C=C/C12c3ccccc3C(c3ccccc31)C1C(=O)NC(=O)C12)c1ccc(I)cc1 (stereo not given)" unit=% result=56.7
molecule="O=C1CCC(C(=O)N/N=C/c2cc(F)ccc2F)N1 (stereo not given)" unit=% result=97.8
molecule=N#Cc1c(-c2ccc(Br)cc2)nc2c(N=Nc3ccc(S(N)(=O)=O)cc3)c(N)nn2c1N unit=% result=43.4
molecule=N=C(N)c1ccc(-c2ccc(-c3ccccc3)o2)o1 unit=% result=45.1
molecule=C=C(C)[C@@H]1CC[C@]2(C(=O)N3CCN(C)CC3)CC[C@]3(C)[C@H](CC[C@@H]4[C@@](C)(CCC(=O)O)[C@H](C(=C)C)CC[C@]43C)[C@@H]12 unit=% result=92.2
molecule=COC(=O)[C@]1(C)CCC[C@]2(C)[C@H]3C[C@@H]4[C@H]5[C@@H]6CC/C(=N\OCC/C(N)=N/O)[C@H]5[C@@]3(CC[C@H]21)CC4(C(C)C)O6 unit=% result=85.8
molecule=CCN(CC)CCOc1ccc2c(-c3ccccc3)c(-c3ccc(OC)cc3)c(=O)oc2c1 unit=% result=51.6
molecule=C/C(Cc1ccc(Cl)cc1)=C(\c1ccc(OCCN2CCCCCC2)cc1)c1ccc(OC(=O)c2ccccc2)cc1 unit=% result=77.4
molecule=O=C(Nc1ccc(Oc2cccc(Cl)c2)c(Cl)c1)c1cccnn1 unit=% result=102
molecule=O=C(c1c[nH]c2ccccc12)c1n[nH]c(=S)n1-c1ccc([N+](=O)[O-])cc1 unit=% result=86.4
molecule=O=[N+]([O-])c1ccccc1Sc1ccccc1[N+](=O)[O-] unit=% result=97.2
molecule=COc1ccc(-c2cc(-c3cn(-c4cccc(Cl)c4)nc3-c3ccc(OC)cc3)on2)cc1 unit=% result=86.8
molecule=CCCCn1c(NC(C)=O)c(S(=O)(=O)c2ccccc2)c2nc3ccccc3nc21 unit=% result=121
molecule=CCN1CCN(CCNc2nccc(-c3c(-c4ccc(F)c(O)c4)nc4occn34)n2)S1(=O)=O unit=% result=1.39
molecule=N#Cc1c(-c2cccc(Cl)c2)cc(-c2cccnc2)[nH]c1=O unit=% result=79.7
molecule="Cc1oc(-c2ccc(Cl)cc2)nc1C1=NN(C(=O)c2ccncc2)C(c2ccccc2)C1 (stereo not given)" unit=% result=97.2
molecule="CCn1cc(C(=O)O)c(=O)c2cc(F)c(N3CCN(CC(=O)Nc4ccccc4)C(C)C3)c(F)c21 (stereo not given)" unit=% result=122
molecule=Cc1ccc(C)c2c1sc1nc(N3CCOCC3)c(C#N)c(=O)n12 unit=% result=110
molecule=COc1cc(Cc2cc(-c3ccccc3)nn(Cc3ccccc3)c2=O)cc(OC)c1OC unit=% result=38.4
molecule=O=C(O)c1cn(C2CC2)c2cc(N3CCN(C(=O)N4CCOCC4)CC3)c(F)cc2c1=O unit=% result=103
